Recorded pIC50 for the following molecules
System: A431 (ATCC: CRL-1555)
PROTOCOL TEXT: Test of cancer cell growth inhibition (SRB), A431
TEST SETTINGS: Homo sapiens, A-431, 72 h, read-out: IC50 A431
Interpret pIC50 as the negative base-10 log of the concentration measured in mol/L.

Recorded pIC50, per entry:
INSERT INTO assay_data (test_smiles, readout_number) VALUES
  ('C=CC(=O)NCCC(=O)N(C)c1ccc2ncnc(Nc3ccc(OCc4cccc(F)c4)c(Cl)c3)c2c1', 7.16),
  ('CC(C)(C)OC(=O)NCC(=O)Nc1ccc2ncnc(Nc3ccc(OCc4cccc(F)c4)c(Cl)c3)c2c1', 6.39),
  ('CCNC(=O)NCCC(=O)Nc1ccc2ncnc(Nc3ccc(OCc4cccc(F)c4)c(Cl)c3)c2c1', 6.62);

Attention now turns to another entry.
Provide measured pIC50 value, entry: C=CC(=O)NCCC(=O)Nc1ccc2ncnc(Nc3ccc(OCc4ccccn4)c(Cl)c3)c2c1
7.43

* * *

Recorded IC50 for the following compounds
Test system: A431 (ATCC: CRL-1555)
PROTOCOL TEXT: Test of cancer cell growth inhibition (SRB), A431
TEST SETTINGS: Homo sapiens, A-431, 72 h, read-out: IC50 A431
Provide only the numeric value, understood in nM.

Recorded IC50, per entry:
INSERT INTO results (compound, target_entity, readout_number) VALUES
  ('C=CC(=O)N1CCC[C@H]1C(=O)Nc1cc2c(Nc3ccc(OCc4ccccn4)c(C)c3)ncnc2cc1F [Example 177]', 'A431 (ATCC: CRL-1555)', 78),
  ('CS(=O)(=O)CC(=O)NCCC(=O)Nc1ccc2ncnc(Nc3ccc(OCc4cccnc4)c(Cl)c3)c2c1 [Example 133]', 'A431 (ATCC: CRL-1555)', 7260),
  ('N#CCC(=O)NCCCC(=O)Nc1ccc2ncnc(Nc3ccc(OCc4cccc(F)c4)c(Cl)c3)c2c1 [Example 93]', 'A431 (ATCC: CRL-1555)', 324);

Provide measured IC50 value, entry: C=CC(=O)N[C@@H](C)C(=O)Nc1cc2c(Nc3ccc(OCc4ccccn4)c(Cl)c3)ncnc2cc1OCCCOC [Example 220]
22

Provide measured IC50 value, entry: CS(=O)(=O)CC(=O)NCCCC(=O)Nc1ccc2ncnc(Nc3ccc(OCc4cccc(F)c4)c(Cl)c3)c2c1 [Example 88]
732

Provide measured IC50 value, entry: O=C(CCCNC(=O)c1cn[nH]c1)Nc1ccc2ncnc(Nc3ccc(OCc4cccc(F)c4)c(Cl)c3)c2c1 [Example 95]
994

Provide measured IC50 value, entry: COCC(=O)NCCC(=O)Nc1ccc2ncnc(Nc3ccc(OCc4ccccn4)c(Cl)c3)c2c1 [Example 129-2]
490

* * *

Test system: A431 (ATCC: CRL-1555)
PROTOCOL TEXT: Test of cancer cell growth inhibition (SRB), A431
TEST SETTINGS: Homo sapiens, A-431, 72 h, read-out: IC50 A431
MEASUREMENT NAME: log10 of IC50 (log10 of the value in nM)
Record value = log10 of IC50 given in nM.

INSERT INTO results (compound, readout_number) VALUES
  ('COCC(=O)NCCCCC(=O)Nc1ccc2ncnc(Nc3ccc(OCc4cccc(F)c4)c(Cl)c3)c2c1', 2.07),
  ('C=CC(=O)N1CCCC1CC(=O)Nc1ccc2ncnc(Nc3ccc(OCc4ccccn4)c(Cl)c3)c2c1 (stereo not drawn)', 1.93);

Provide measured log10 of IC50 value, entry: C=CC(=O)N1CCC[C@H]1C(=O)Nc1cc2c(Nc3ccc(OCc4ccccn4)c(Cl)c3)ncnc2cc1N(C)C
3.15

Provide measured log10 of IC50 value, entry: C=CC(=O)NCC(=O)Nc1cc2c(Nc3ccc(OCc4cccc(F)c4)c(Cl)c3)ncnc2cc1OCCOC
1.15

Provide measured log10 of IC50 value, entry: CC(CNC(=O)CS(C)(=O)=O)C(=O)Nc1ccc2ncnc(Nc3ccc(OCc4cccc(F)c4)c(Cl)c3)c2c1 (stereo not drawn)
2.59

Provide measured log10 of IC50 value, entry: O=C(CCNC(=O)Nc1ccccc1)Nc1ccc2ncnc(Nc3ccc(OCc4cccc(F)c4)c(Cl)c3)c2c1
2.77

Provide measured log10 of IC50 value, entry: C=CC(=O)N1C[C@H](OC(C)=O)C[C@H]1C(=O)Nc1ccc2ncnc(Nc3ccc(OCc4ccccn4)c(Cl)c3)c2c1
1.53

Provide measured log10 of IC50 value, entry: C=CC(=O)N1CCC[C@H]1C(=O)Nc1cc2c(Nc3ccc(OCc4cccc(F)c4)c(Cl)c3)ncnc2cc1OCCOC
1.77

Provide measured log10 of IC50 value, entry: CS(=O)(=O)CC(=O)NCCC(=O)Nc1ccc2ncnc(Nc3ccc(F)c(Cl)c3)c2c1
2.09

Provide measured log10 of IC50 value, entry: C=CC(=O)N1CCC[C@H]1C(=O)Nc1cc2c(Nc3ccc(OCc4ccccn4)c(Cl)c3)ncnc2cc1OCCOC
1.53

Provide measured log10 of IC50 value, entry: COCC(=O)NCCCC(=O)Nc1ccc2ncnc(Nc3ccc(OCc4cccc(F)c4)c(Cl)c3)c2c1
1.98
